assay: qHTS assay for small molecules that induce genotoxicity in human embryonic kidney cells expressing luciferase-tagged ATAD5 (AID 651632); details: HEK293T ATAD5-luciferase induction, 16 h; series mostly up to 83.3 µM; also: nearly all actives have a fitted effect of over 15% in size
Inconclusive results are not listed. Activity calls are given as the source filed them. Calls follow the shape of the dose curve; as a rule, active = well fitted activation curve with a large enough effect in the repeat runs; inconclusive = weak or mixed curves; inactive = no such curve, though single readings can be large or run the other way.
metric: outcome

> print(dat)
                                   compound  measuredresult
1   c1cc(CN2CCCCC2)cc(OCCCNc2nc3ccccc3s2)c1        inactive
2  C=CCSCC1Nc2cc(Cl)c(S(N)(=O)=O)cc2S(=O)(=O)N1 (configuration not stated)        inactive
3  CCCCCCCCCCCCCCCCCCOCC(O)CO (configuration not stated)        inactive
4                          CC(C)c1cccc(O)c1        inactive
5  CC(=O)NC(Cc1ccccc1)C(=O)O (configuration not stated)        inactive
6  C=C(C)C1CC=C(C)C(O)C1 (configuration not stated)        inactive
7      CCCC(C)CO (configuration not stated)        inactive
